Values from paper PMC7102968

Molecular target: TetR(BD') (UniProt P04483 1-187+P0ACT4:188-208, C68S;C88N;C121T;C144S;internal_change)
Test: EMSA; 10 mM Mg2+, 25 ug/ml yeast tRNA; ITC: 20 mM potassium phosphate pH 7.4, 50 mM NaCl, 25 C; EMSA: 50 mM Tris-HCl pH 8.0, 10 mM MgCl2, 25 mM NaCl, 25 ug/ml yeast tRNA, room temperature; SEC buffer not given (preparative complex: 20 mM Tris-HCl pH 8.0, 150 mM NaCl, 5 mM MgCl2)
Conditions: protein: recombinant, chain copies: 2, label: 5'-32P in EMSA, none in ITC, crystal, hairpin, L-shaped, 43 nt, stems P1 and P2
pKd: −log10 of the molar value.

binder: GGCCGGAGAAUGUUAUGGCGCGAAAGCGCAGAGAAAACCGGUC (structured_RNA) [TetR-binding aptamer K1]
pKd: 7.10
